- TARGET_OR_TEST_SYSTEM: Bcl-2 protein (Recombinant Human Bcl-2 Protein) (Homo sapiens)
- Construct: purchased Novus NBP2-34889
- Sequence (P10415 whole entry): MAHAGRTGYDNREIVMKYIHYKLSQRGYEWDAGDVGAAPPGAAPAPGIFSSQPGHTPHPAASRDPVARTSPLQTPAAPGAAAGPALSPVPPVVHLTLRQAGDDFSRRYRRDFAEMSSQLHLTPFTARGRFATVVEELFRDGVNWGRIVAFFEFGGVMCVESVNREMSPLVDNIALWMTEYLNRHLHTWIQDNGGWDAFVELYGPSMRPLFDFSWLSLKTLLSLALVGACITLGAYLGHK
- TEST_METHOD_NOTES: Binding evaluation of mixture library compounds to Bcl-2 using AS-MS (affinity selection mass spectrometry)
- APPLIED_CONDITIONS: AS-MS on the mixture of 1200 library compounds; ASMS Ratio(%)=(A−C)/B×100; replicate n = 2
ASSAY_ENDPOINT: ASMS ratio (%) n = 2

molecule=CCOc1cncc(-c2cc(C(=O)N3CCN(c4ccc(C(=O)N(C)CC56CC7CC(CC(C7)C5)C6)nn4)CC3)cc(C(C)(C)C)c2)c1 recorded_result=0.1
molecule=CCOc1cncc(-c2ccc(CN3CCN(c4ccc(C(=O)Nc5ccc(OC)cc5)nn4)CC3)c(OC)c2)c1 recorded_result=3.4
molecule=CCOc1cncc(-c2cc(CN3CCN(c4ccc(C(=O)Nc5ccc(OC)cc5)cc4)CC3)cc(C(F)(F)F)c2)c1 recorded_result=4.6
molecule=CCOc1cncc(-c2ccccc2CCC(=O)N2CCN(c3ccc(C(=O)N(CC)CC)nn3)CC2)c1 recorded_result=−0.8
molecule="CCOc1cncc(-c2ccc(C(C)N3CCN(c4ccc(C(=O)N(C)CC56CC7CC(CC(C7)C5)C6)cc4)CC3)cc2)c1 (stereo not drawn)" recorded_result=3.0
molecule=CCOc1cncc(-c2ccc(C(=O)N3CCN(c4ccc(C(=O)N(CC)CC)cc4)CC3)cc2F)c1 recorded_result=0.9
molecule=CCOc1cccc(-c2cnn(-c3cc(C(=O)N4CCN(c5ccc(C(=O)N(CC)CC)cc5)CC4)cc(C(F)(F)F)c3)c2)c1 recorded_result=3.2
molecule=CCOc1cccc(-c2ccccc2CN2CCN(c3ccc(C(=O)N(C)CC45CC6CC(CC(C6)C4)C5)cc3)CC2)c1 recorded_result=2.5
molecule=CCOc1cncc(-c2csc(CN3CCN(c4ccc(C(=O)N(C)CC56CC7CC(CC(C7)C5)C6)nn4)CC3)c2)c1 recorded_result=0.5
molecule=CCOc1cncc(-c2ccc(C(=O)N3CCN(c4ccc(C(=O)N(CC)CC)cc4)CC3)c3ccccc23)c1 recorded_result=−1.6
molecule=CCOc1cncc(-c2ccc(C(=O)N3CCN(c4ccc(C(=O)Nc5ccc(OC)cc5)nn4)CC3)c3ccccc23)c1 recorded_result=0.2
molecule=CCOc1cncc(C#Cc2ccccc2C(=O)N2CCN(c3ccc(C(=O)N(C)CC45CC6CC(CC(C6)C4)C5)nn3)CC2)c1 recorded_result=−0.3
molecule=CCOc1cccc(-c2cc(OC)c(CN3CCN(c4ccc(C(=O)Nc5ccc(OC)cc5)cc4)CC3)c(OC)c2)c1 recorded_result=−1.9
molecule=CCOc1cncc(-c2ccc(CN3CCN(c4ccc(C(=O)N(CC)CC)cc4)CC3)cc2C)c1 recorded_result=−2.1
molecule=CCOc1cccc(-c2ccc(C(=O)N3CCN(c4ccc(C(=O)N(CC)CC)cc4)CC3)c3ccccc23)c1 recorded_result=1.5
molecule=CCOc1cncc(-c2ccc(CN3CCN(c4ccc(C(=O)N(CC)CC)cc4)CC3)c(OC)c2)c1 recorded_result=−1.1
molecule=CCOc1cncc(-c2cc(OC)c(CN3CCN(c4ccc(C(=O)Nc5ccc(OC)cc5)cc4)CC3)c(OC)c2)c1 recorded_result=−1.8
molecule=CCOc1cncc(C#Cc2cc(C(=O)N3CCN(c4ccc(C(=O)N(C)CC56CC7CC(CC(C7)C5)C6)cc4)CC3)cc(C(F)(F)F)c2)c1 recorded_result=−1.2
molecule=CCOc1cccc(C#Cc2cncc(C(=O)N3CCN(c4ccc(C(=O)Nc5ccc(OC)cc5)cc4)CC3)c2)c1 recorded_result=−4.1
molecule=CCOc1cccc(-c2cc(CN3CCN(c4ccc(C(=O)N(C)CC56CC7CC(CC(C7)C5)C6)cc4)CC3)cc(OC(F)(F)F)c2)c1 recorded_result=390.0
molecule=CCOc1cccc(-c2cc(CN3CCN(c4ccc(C(=O)N(C)CC56CC7CC(CC(C7)C5)C6)cc4)CC3)cc(OCC)c2)c1 recorded_result=−12.7
molecule=CCOc1cncc(-c2cnn(-c3cc(C(=O)N4CCN(c5ccc(C(=O)N(C)CC67CC8CC(CC(C8)C6)C7)nn5)CC4)cc(C(F)(F)F)c3)c2)c1 recorded_result=7.2
molecule=CCOc1cncc(-c2ccc(CN3CCN(c4ccc(C(=O)N(C)CC56CC7CC(CC(C7)C5)C6)nn4)CC3)c(CC)c2)c1 recorded_result=−0.9
molecule=CCOc1cccc(C#Cc2ccccc2C(=O)N2CCN(c3ccc(C(=O)N(C)CC45CC6CC(CC(C6)C4)C5)nn3)CC2)c1 recorded_result=−5.1
molecule=CCOc1cncc(-c2cc(CN3CCN(c4ccc(C(=O)N(C)CC56CC7CC(CC(C7)C5)C6)cc4)CC3)cc(C(F)(F)F)c2)c1 recorded_result=2.8
molecule=CCOc1cncc(C#Cc2cc(C(=O)N3CCN(c4ccc(C(=O)Nc5ccc(OC)cc5)nn4)CC3)cc(C(F)(F)F)c2)c1 recorded_result=−0.5
molecule=CCOc1cccc(-c2cc(CN3CCN(c4ccc(C(=O)Nc5ccc(OC)cc5)cc4)CC3)cc(OC(F)(F)F)c2)c1 recorded_result=−4.1
